Values were extracted from ChEMBL document CHEMBL2434924.

- ASSAY NOTES: Antagonist activity at angiotensin 2 receptor in Japanese white rabbit thoracic aorta assessed as inhibition of angiotensin 2-induced contraction after 60 mins by Schild plot analysis
- Assay type: tissue-based, Oryctolagus cuniculus
Measured pA2 accompanies every entry in the list below.
API doc: respond with a numeric literal and nothing else, no unit.

Take a look at these entries with their results.
compound=CCCc1nc2c(C)cc(C(=O)NCCN3CCOCC3)cc2n1Cc1ccc(-c2ccccc2C(=O)O)cc1 obs_value=8.2
compound="CCCCc1nc(Cl)c(CO)n1Cc1ccc(-c2ccccc2-c2nnn[nH]2)cc1 [LOSARTAN]" obs_value=7.92
compound=CCCc1nc2c(C)cc(C(=O)NCCc3ccccc3)cc2n1Cc1ccc(-c2ccccc2C(=O)O)cc1 obs_value=8.51
compound=CCCc1nc2c(C)cc(NC(=O)Cc3ccccc3)cc2n1Cc1ccc(-c2ccccc2C(=O)O)cc1 obs_value=8.21
compound=CCCc1nc2c(C)cc(NC(=O)OC)cc2n1Cc1ccc(-c2ccccc2C(=O)O)cc1 obs_value=8.15

Query :: // Input: `CCCc1nc2c(C)cc(NC(=O)CCc3ccccc3)cc2n1Cc1ccc(-c2ccccc2C(=O)O)cc1` . Output its pA2 only.
Result :: 8.43

Query :: // Input: `CCCc1nc2c(C)cc(NC(=O)c3ccc(C)cc3)cc2n1Cc1ccc(-c2ccccc2C(=O)O)cc1` . Output its pA2 only.
Result :: 8.25

---

- EXPERIMENTAL SYSTEM: Type-1 angiotensin II receptor (Homo sapiens)
- Sequence (P30556 whole entry): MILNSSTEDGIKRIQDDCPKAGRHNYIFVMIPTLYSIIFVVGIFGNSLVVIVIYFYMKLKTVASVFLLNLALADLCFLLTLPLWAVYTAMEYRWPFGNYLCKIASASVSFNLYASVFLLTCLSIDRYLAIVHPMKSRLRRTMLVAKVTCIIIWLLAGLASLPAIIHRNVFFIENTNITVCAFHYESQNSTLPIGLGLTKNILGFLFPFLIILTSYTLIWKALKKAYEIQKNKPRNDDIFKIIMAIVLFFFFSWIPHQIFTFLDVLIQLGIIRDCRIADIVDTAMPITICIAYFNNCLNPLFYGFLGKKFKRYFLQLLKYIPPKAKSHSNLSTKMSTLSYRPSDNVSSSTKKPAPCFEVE
pIC50: −log10 of the molar value.
Kindly return yes (1) if reported pIC50 is no lower than 8; return no (0) if it is lower.

smiles_entry=CCCc1nc2c(C)cc(C(=O)N3CCOCC3)cc2n1Cc1ccc(-c2ccccc2C(=O)O)cc1 experimental_system="Type-1 angiotensin II receptor (Homo sapiens)" class_name="no (0)"
smiles_entry=CCCNC(=O)c1cc(C)c2nc(CCC)n(Cc3ccc(-c4ccccc4C(=O)O)cc3)c2c1 experimental_system="Type-1 angiotensin II receptor (Homo sapiens)" class_name="no (0)"
smiles_entry=CCCc1nc2c(C)cc(NC(=O)CC)cc2n1Cc1ccc(-c2ccccc2C(=O)O)cc1 experimental_system="Type-1 angiotensin II receptor (Homo sapiens)" class_name="yes (1)"

Consider the record given below.
Query :: For this molecule, is measured pIC50 8 or higher? `CCCc1nc2c(C)cc(NC(=O)c3ccc(C)cc3)cc2n1Cc1ccc(-c2ccccc2C(=O)O)cc1`
Result :: yes (1)
